particulars: in methyl acetate, 308.15 K

chemical string	solubility (mole fraction)
CC1(C)CO[P+]([O-])(Oc2c(Br)cc(Br)cc2Br)OC1	0.0107

---

particulars: in toluene, 323.15 K

chemical string	solubility (mole fraction)
CC1(C)CO[P+]([O-])(Oc2c(Br)cc(Br)cc2Br)OC1	0.0195

---

particulars: in acetone, 293.15 K
attribute measured: solubility (mole fraction)

chemical string	reported
CC1(C)CO[P+]([O-])(Oc2c(Br)cc(Br)cc2Br)OC1	0.0131

---

particulars: in ethanol, 298.15 K
attribute measured: solubility (mole fraction)

chemical string	reported
CC1(C)CO[P+]([O-])(Oc2c(Br)cc(Br)cc2Br)OC1	0.00298

---

particulars: in chloroform, 298.15 K

chemical string	solubility (mole fraction)
CC1(C)CO[P+]([O-])(Oc2c(Br)cc(Br)cc2Br)OC1	0.0882

---

particulars: in ethyl acetate, 298.15 K

chemical string	solubility (mole fraction)
CC1(C)CO[P+]([O-])(Oc2c(Br)cc(Br)cc2Br)OC1	0.00564

---

particulars: in chloroform, 328.15 K

chemical string	solubility (mole fraction)
CC1(C)CO[P+]([O-])(Oc2c(Br)cc(Br)cc2Br)OC1	0.124

---

particulars: in acetonitrile, 343.15 K
attribute measured: solubility (mole fraction)

chemical string	reported
CC1(C)CO[P+]([O-])(Oc2c(Br)cc(Br)cc2Br)OC1	0.0265

---

particulars: in toluene, 313.15 K

chemical string	solubility (mole fraction)
CC1(C)CO[P+]([O-])(Oc2c(Br)cc(Br)cc2Br)OC1	0.0145
